Value source: patent US4581453A

tested on: Aspergillus fumigatus
Where a name gives a salt, the structure may show the parent alone.
# key: entry, value: MIC
Entry rule: numbers only, all in µg/mL.

Here are 2 compounds together with their reported answers.
compound	system_tested	readout_name	experimental_value
Cc1cc(Cl)ccc1-c1csc(N=C2NCCCN2)n1 [Example 33, hydrochloride]	Aspergillus fumigatus	MIC	2
CC(=O)N1CCN(c2ccc(OCC3COC(Cn4ccnc4)(c4ccc(Cl)cc4Cl)O3)cc2)CC1 (centres unmarked) [Ketoconazol, ketoconazol, reference compound]	Aspergillus fumigatus	MIC	16

Now look at this entry.
Quick one: MIC for Clc1ccc(-c2csc(N=C3NCCCN3)n2)c(Cl)c1 [Example 27] ?
8
